Just for reference, patent US20210292423A1 is where these values come from.

molecular target: T1, human CD3ε/δ-Fc fusion protein (soluble recombinant CD3ε/δ complex) (human, UniProt P04234 22-105); assay: SPR Biacore, Fab
T1 construct: also called huCD3ε/δ; huCD3; not shown: hinge, CH2, CH3 of human IgG with tag
T1 sequence (chain, as listed by the source mutant, chain 1 of 2): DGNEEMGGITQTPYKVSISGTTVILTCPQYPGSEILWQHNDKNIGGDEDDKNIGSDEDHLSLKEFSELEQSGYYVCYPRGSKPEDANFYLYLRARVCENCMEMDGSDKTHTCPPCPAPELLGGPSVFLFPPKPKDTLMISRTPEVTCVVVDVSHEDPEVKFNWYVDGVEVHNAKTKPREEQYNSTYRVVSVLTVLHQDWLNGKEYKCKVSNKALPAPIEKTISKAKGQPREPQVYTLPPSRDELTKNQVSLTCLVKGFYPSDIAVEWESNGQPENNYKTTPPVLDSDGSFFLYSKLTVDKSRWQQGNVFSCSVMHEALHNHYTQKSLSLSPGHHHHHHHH
T1 sequence (P04234 22-105, stated change not applied, chain 2 of 2): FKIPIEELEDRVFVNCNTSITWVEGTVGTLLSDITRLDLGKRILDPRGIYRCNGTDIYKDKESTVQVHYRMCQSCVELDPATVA
# maps each entry to its kon
Measure: kon (M⁻¹ s⁻¹)

Binder: humanized 4B4 Fab 4B4_20 (VL2F, VH6C) (Fab, V domains shown, expressed as Fab-fragment) VH: QVQLVESGGGVVQPGRSLRLSCAASGFTFSNAWMHWVRQAPGKQLEWVAQIKARSNNYATYYADSVKGRFTISRDDSKSTLYLQMNSLRAEDTAVYYCRGTYYASKPFDYWGQGTLVTVSS VL: DIVMTQTPLSLSVTPGQPASISCKSSQSLVHDNANTYLSWYLQKPGQSPQSLIYKVSNRFSGVPDRFSGSGSGTDFTLKISRVEAEDVGVYYCGQGTQYPFTFGSGTKVEIK
Measured result: 50900

Binder: humanized 4B4 Fab 4B4_5 (VL2C, VH6D) (Fab, V domains shown, expressed as Fab-fragment) VH: QVQLVESGGGVVQPGRSLRLSCATSGFTFSNAWMHWVRQAPGKQLEWVAQIKARSNNYATYYADSVKGRFTISRDDSKSTIYLQMNSLRAEDTAVYYCRGTYYASKPFDYWGQGTLVTVSS VL: DIVMTQTPLSLSVTPGQPASISCKSSQSLVHDNGNTYLSWSLQKPGQSPQVLIYKVSNRFSGVPDRFSGSGSGTDFTLKISRVEAEDVGVYYCGQGTQYPFTFGSGTKLEIK
Measured result: 233000

Binder: humanized 4B4 Fab 4B4_10 (VL1_CM2, VH6_BM2) (Fab, V domains shown) VH: QVQLVESGGRVVQPGRSLRLTCAASGFTFSNAWMHWVRQAPGKQLEWVAQIKARSNNYATYYAESVKGRFTISRDDSKSTIYLQMNSLRAEDTAVYYCRGTYYASKPFDYWGQGTTVTVSS VL: DVVMTQSPLSLSVTLGQPVSISCRSSQSLVHDNGNTYLSWSLQRPGQSPRVLIYKVSNRFSGVPDRFSGSGSGTDFTLKISRVEAEDVGVYYCGQGTQYPFTFGSGTKLEIK
Measured result: 434000
